Listing: Cellular Reporter Assay Amax of selected compounds
- system_under_test: RORγt (Homo sapiens)
- Construct: The plasmid of pFN26A-RORγt-LBD and pG14.35 (Promega, Cat. No. E1370) were co-transfected into HEK 293 cells; expressed in transfected cells; host or cells: HEK 293 cells (Cat. No. GNHu18)
- protocol_details: RORγt cellular reporter gene detection assay;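 on Cellular Reporter Assay Amax: Ursolic Acid added as 5 µL of 20 µM medium per well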
- Assay type: cell-based
- measurement_conditions: upper activation limit; HEK 293 cells, in presence of antagonist Ursolic acid, 24 hrs
recorded_endpoint: Cellular Reporter Assay Amax

>  <given_smiles>
C/C(=C\c1ccc2c(c1)N(S(=O)(=O)c1cccc(C(F)(F)F)c1)C[C@@H]1CN(C3(C#N)CCC3)CCN21)c1c(F)cccc1Cl

>  <system_under_test>
RORγt (Homo sapiens)

>  <measured_result>
3.2

$$$$
>  <given_smiles>
CC1(C)C=C(c2ccc3c(c2)N(S(=O)(=O)c2cccc(C(F)(F)F)c2)C[C@@H]2CN(C(=O)CC#N)CCN32)CC(C)(C)O1

>  <system_under_test>
RORγt (Homo sapiens)

>  <measured_result>
3.4

$$$$
>  <given_smiles>
O=C(O)CCO[C@@H]1CCN2c3ccc(-c4cc(F)cc(OC(F)F)c4)cc3N(S(=O)(=O)c3cccc(C(F)(F)F)c3)C[C@@H]2C1

>  <system_under_test>
RORγt (Homo sapiens)

>  <measured_result>
5.4

$$$$
>  <given_smiles>
C/C(=C\c1ccc2c(c1)N(S(=O)(=O)c1cccc(C(F)(F)F)c1)C[C@@H]1CN(C3COC3)CCN21)c1c(F)cccc1Cl

>  <system_under_test>
RORγt (Homo sapiens)

>  <measured_result>
5.2

$$$$
>  <given_smiles>
C/C(=C\c1ccc2c(c1)N(S(=O)(=O)c1cccc(C(F)(F)F)c1)C[C@@H]1CN(C(N)=O)CCN21)c1c(F)cccc1Cl

>  <system_under_test>
RORγt (Homo sapiens)

>  <measured_result>
3.8

$$$$

* * *

- system_under_test: RORγt-LBD (Homo sapiens)
- Sequence (P51449 269-508 limits assumed, species assumed): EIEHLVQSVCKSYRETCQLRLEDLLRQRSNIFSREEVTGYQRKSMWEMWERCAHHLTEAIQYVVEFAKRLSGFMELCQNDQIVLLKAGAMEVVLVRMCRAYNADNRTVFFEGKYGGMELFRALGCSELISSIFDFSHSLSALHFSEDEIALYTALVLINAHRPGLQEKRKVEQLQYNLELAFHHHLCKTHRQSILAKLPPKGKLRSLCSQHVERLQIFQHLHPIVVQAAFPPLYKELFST
- protocol_details: Time-resolved fluorescence resonance energy-transfer assay (TR-FRET), co-activator peptide recruitment
- measurement_conditions: His-RORγt-LBD 30 nM, SRC peptide 500 nM; agonistic activity; averages of one or more measurements; read-out: TR-FRET Biochemical EC50/
pEC50: −log10 of the molar value.

>  <compound>
C[C@]1(O)CCN2c3ccc(-c4cc(F)cc(OC(F)F)c4)cc3N(S(=O)(=O)c3cccc(C(F)(F)F)c3)C[C@@H]2C1 [Example 108]

>  <pEC50>
7.26

$$$$
>  <compound>
CC(C(=O)O)N1CCN2c3ccc(C4=CC(C)(C)OC(C)(C)C4)cc3N(S(=O)(=O)c3cccc(C(F)(F)F)c3)C[C@@H]2C1 (stereo partly drawn) [Example 27]

>  <pEC50>
8.28

$$$$
>  <compound>
O=S1(=O)CCN2c3ccc(-c4cc(F)cc(OC(F)F)c4)cc3N(S(=O)(=O)c3cccc(C(F)(F)F)c3)CC2C1 (stereo not drawn) [Example 102]

>  <pEC50>
6.09

$$$$
>  <compound>
CC1(C)C=C(c2ccc3c(c2)N(S(=O)(=O)c2cccc(C(F)(F)F)c2)C[C@@H]2CNCCN32)CC(C)(C)O1 [Example 13]

>  <pEC50>
7.45

$$$$
>  <compound>
CCOC(=O)CN1CCN2c3ccc(/C=C/c4c(Cl)cccc4C(F)(F)F)cc3N(S(=O)(=O)c3cccc(C(F)(F)F)c3)C[C@@H]2C1 [Example 46]

>  <pEC50>
8.28

$$$$
>  <compound>
C/C(=C\c1ccc2c(c1)N(S(=O)(=O)c1cccc(C(F)(F)F)c1)C[C@H](CCC(=O)O)N2C)c1c(F)cccc1Cl [Example 3]

>  <pEC50>
7.54

$$$$

* * *

Listing: TR-FRET Biochemical Amax of selected compounds
- system_under_test: UniProt P51449
- protocol_details: Time-resolved fluorescence resonance energy-transfer assay (TR-FRET), co-activator peptide recruitment
- Format: biochemical
- Design: unit not given here
- measurement_conditions: upper activation limit; His-RORγt-LBD, SRC peptide

>  <compound>
C/C(=C\c1ccc2c(c1)N(S(=O)(=O)c1cccc(C(F)(F)F)c1)C[C@@H]1CN(C3(C#N)CCC3)CCN21)c1c(F)cccc1Cl [Example 76]

>  <TR-FRET Biochemical Amax>
0.99

$$$$
>  <compound>
CS(=O)(=O)N1CCN2c3ccc(-c4cc(F)cc(OC(F)F)c4)cc3N(S(=O)(=O)c3cc(C(F)(F)F)cnc3OCCO)C[C@@H]2C1 [Example 89]

>  <TR-FRET Biochemical Amax>
0.40

$$$$
>  <compound>
C/C(=C\c1ccc2c(c1)N(S(=O)(=O)c1cccc(C(F)(F)F)c1)C[C@@H]1CNCCN21)c1c(F)cccc1Cl [Example 10]

>  <TR-FRET Biochemical Amax>
0.81

$$$$
>  <compound>
O=S(=O)(c1cccc(C(F)(F)F)c1)N1C[C@@H]2CC(F)CCN2c2ccc(-c3cc(F)cc(OC(F)F)c3)cc21 (stereo partly drawn) [Example 103]

>  <TR-FRET Biochemical Amax>
0.49

$$$$
>  <compound>
O=S(=O)(c1cccc(C(F)(F)F)c1)N1C[C@@H]2CN(C[C@H](O)CO)CCN2c2ccc(/C=C/c3c(Cl)cccc3C(F)(F)F)cc21 [Example 36]

>  <TR-FRET Biochemical Amax>
1.23

$$$$
>  <compound>
O=C(O)CN1CCN2c3ccc(-c4cc(F)cc(OC(F)F)c4)cc3N(S(=O)(=O)c3cccc(C(F)(F)F)c3)C[C@@H]2C1 [Example 9]

>  <TR-FRET Biochemical Amax>
0.63

$$$$

* * *

Listing: EC50 of selected compounds
- system_under_test: RORγt (Homo sapiens, UniProt P51449)
- Construct: The plasmid of pFN26A-RORγt-LBD and pG14.35 (Promega, Cat. No. E1370) were co-transfected into HEK 293 cells; expressed in transfected cells; host or cells: HEK 293 cells (Cat. No. GNHu18)
- Sequence (P51449 269-508 limits assumed, species assumed): as above
- protocol_details: RORγt cellular reporter gene detection assay
- Type: cell-based
- measurement_conditions: HEK 293 cells co-transfected with pFN26A-RORγt-LBD and pG14.35, in presence of antagonist Ursolic acid, 24 hrs; top concentration 50 μM
recorded_endpoint: EC50 (nM)

>  <compound>
CS(=O)(=O)CCOC1CCN2c3ccc(-c4cc(F)cc(OC(F)F)c4)cc3N(S(=O)(=O)c3cccc(C(F)(F)F)c3)C[C@@H]2C1 (stereo partly shown) [Example 111]

>  <system_under_test>
RORγt (Homo sapiens, UniProt P51449)

>  <sign>
=

>  <measured_result>
564

$$$$
>  <compound>
C/C(=C\c1ccc2c(c1)N(S(=O)(=O)c1cccc(C(F)(F)F)c1)C[C@@H]1CN(C[C@@H](O)CO)CCN21)c1c(F)cccc1Cl [Example 37]

>  <system_under_test>
RORγt (Homo sapiens, UniProt P51449)

>  <sign>
=

>  <measured_result>
366

$$$$
>  <compound>
CC(=O)N1CCN2c3ccc(/C=C/c4c(Cl)cccc4C(F)(F)F)cc3N(S(=O)(=O)c3cccc(C(F)(F)F)c3)C[C@@H]2C1 [Example 14]

>  <system_under_test>
RORγt (Homo sapiens, UniProt P51449)

>  <sign>
=

>  <measured_result>
69.7

$$$$
>  <compound>
CC(C)(C(=O)O)N1CCN2c3ccc(/C=C/c4c(Cl)cccc4C(F)(F)F)cc3N(S(=O)(=O)c3cccc(C(F)(F)F)c3)C[C@@H]2C1 [Example 55]

>  <system_under_test>
RORγt (Homo sapiens, UniProt P51449)

>  <sign>
=

>  <measured_result>
508

$$$$
>  <compound>
CN1c2ccc(-c3cc(F)cc(OC(F)F)c3)cc2N(S(=O)(=O)c2cccc(C(F)(F)F)c2)C[C@@H]1CCC(=O)O [Example 5]

>  <system_under_test>
RORγt (Homo sapiens, UniProt P51449)

>  <sign>
=

>  <measured_result>
1030

$$$$
>  <compound>
O=S(=O)(c1cccc(C(F)(F)F)c1)N1C[C@@H]2CN(C(CO)CO)CCN2c2ccc(-c3cc(F)cc(OC(F)F)c3)cc21 [Example 70]

>  <system_under_test>
RORγt (Homo sapiens, UniProt P51449)

>  <sign>
=

>  <measured_result>
531

$$$$
>  <compound>
CC(=O)N1CCN2c3ccc(-c4cc(F)cc(OC(F)F)c4)cc3N(S(=O)(=O)c3cccc(C(F)(F)F)c3)C[C@@H]2C1 [Example 7]

>  <system_under_test>
RORγt (Homo sapiens, UniProt P51449)

>  <sign>
=

>  <measured_result>
145

$$$$
>  <compound>
N#CCC(=O)N1CCN2c3ccc(/C=C/c4c(Cl)cccc4C(F)(F)F)cc3N(S(=O)(=O)c3cccc(C(F)(F)F)c3)C[C@@H]2C1 [Example 29]

>  <system_under_test>
RORγt (Homo sapiens, UniProt P51449)

>  <sign>
=

>  <measured_result>
1980

$$$$
>  <compound>
C/C(=C\c1ccc2c(c1)N(S(=O)(=O)c1cccc(C(F)(F)F)c1)C[C@@H]1CN(C(C)(C)C(=O)O)CCN21)c1c(F)cccc1Cl [Example 56]

>  <system_under_test>
RORγt (Homo sapiens, UniProt P51449)

>  <sign>
=

>  <measured_result>
622

$$$$
>  <compound>
C/C(=C\c1ccc2c(c1)N(S(=O)(=O)c1cccc(C(F)(F)F)c1)C[C@@H]1CN(C(CO)(CO)C(N)=O)CCN21)c1c(F)cccc1Cl [Example 75]

>  <system_under_test>
RORγt (Homo sapiens, UniProt P51449)

>  <sign>
=

>  <measured_result>
1190

$$$$
>  <compound>
COC(=O)CN1CCN2c3ccc(-c4cc(F)cc(OC(F)F)c4)cc3N(S(=O)(=O)c3cc(C(F)(F)F)cnc3OCCO)C[C@@H]2C1 [Example 90]

>  <system_under_test>
RORγt (Homo sapiens, UniProt P51449)

>  <sign>
=

>  <measured_result>
368

$$$$
>  <compound>
NC(=O)OC1CCN2c3ccc(-c4cc(F)cc(OC(F)F)c4)cc3N(S(=O)(=O)c3cccc(C(F)(F)F)c3)C[C@@H]2C1 (stereo partly shown) [Example 104]

>  <system_under_test>
RORγt (Homo sapiens, UniProt P51449)

>  <sign>
=

>  <measured_result>
344

$$$$
>  <compound>
C/C(=C\c1ccc2c(c1)N(S(=O)(=O)c1cccc(C(F)(F)F)c1)C[C@@H]1CN(C(N)=S)CCN21)c1c(F)cccc1Cl [Example 63]

>  <system_under_test>
RORγt (Homo sapiens, UniProt P51449)

>  <sign>
=

>  <measured_result>
308

$$$$
>  <compound>
C/C(=C\c1ccc2c(c1)N(S(=O)(=O)c1cccc(C(F)(F)F)c1)C[C@@H]1CN(C(N)=O)CCN21)c1c(F)cccc1Cl [Example 62]

>  <system_under_test>
RORγt (Homo sapiens, UniProt P51449)

>  <sign>
=

>  <measured_result>
297

$$$$
>  <compound>
COC(=O)CN1CCN2c3ccc(/C=C(\C)c4c(F)cccc4Cl)cc3N(S(=O)(=O)c3cccc(C(F)(F)F)c3)C[C@@H]2C1 [Example 44]

>  <system_under_test>
RORγt (Homo sapiens, UniProt P51449)

>  <sign>
=

>  <measured_result>
256

$$$$
>  <compound>
CS(=O)(=O)N1CCN2c3ccc(-c4cc(F)cc(OC(F)F)c4)cc3N(S(=O)(=O)c3cc(C(F)(F)F)cnc3OCCO)C[C@@H]2C1 [Example 89]

>  <system_under_test>
RORγt (Homo sapiens, UniProt P51449)

>  <sign>
=

>  <measured_result>
1090

$$$$
>  <compound>
O=C(O)CN1CCN2c3ccc(-c4cc(F)cc(OC(F)F)c4)cc3N(S(=O)(=O)C3C=C(C(F)(F)F)C=NC3=O)C[C@@H]2C1 (stereo partly shown) [Example 92]

>  <system_under_test>
RORγt (Homo sapiens, UniProt P51449)

>  <sign>
≥

>  <measured_result>
50000

$$$$
>  <compound>
O=S(=O)(c1cccc(C(F)(F)F)c1)N1CC2CSCCN2c2ccc(-c3cc(F)cc(OC(F)F)c3)cc21 (stereo not shown) [Example 100]

>  <system_under_test>
RORγt (Homo sapiens, UniProt P51449)

>  <sign>
=

>  <measured_result>
3450

$$$$
>  <compound>
CC(=O)N1CCN2c3ccc(/C=C(\C)c4c(F)cccc4Cl)cc3N(S(=O)(=O)c3cccc(C(F)(F)F)c3)C[C@@H]2C1 [Example 15]

>  <system_under_test>
RORγt (Homo sapiens, UniProt P51449)

>  <sign>
=

>  <measured_result>
134

$$$$
>  <compound>
C/C(=C\c1ccc2c(c1)N(S(=O)(=O)c1cccc(C(F)(F)F)c1)C[C@@H]1CN(CC(=O)O)CCN21)c1c(F)cccc1Cl [Example 21]

>  <system_under_test>
RORγt (Homo sapiens, UniProt P51449)

>  <sign>
=

>  <measured_result>
273

$$$$
>  <compound>
C/C(=C\c1ccc2c(c1)N(S(=O)(=O)c1cccc(C(F)(F)F)c1)C[C@@H]1CNCCN21)c1c(F)cccc1Cl [Example 10]

>  <system_under_test>
RORγt (Homo sapiens, UniProt P51449)

>  <sign>
=

>  <measured_result>
578

$$$$
>  <compound>
CS(=O)(=O)COC1CCN2c3ccc(-c4cc(F)cc(OC(F)F)c4)cc3N(S(=O)(=O)c3cccc(C(F)(F)F)c3)C[C@@H]2C1 (stereo partly shown) [Example 110]

>  <system_under_test>
RORγt (Homo sapiens, UniProt P51449)

>  <sign>
=

>  <measured_result>
214

$$$$
>  <compound>
O=S(=O)(c1cccc(C(F)(F)F)c1)N1C[C@@H]2CN(C[C@@H](O)CO)CCN2c2ccc(-c3cc(F)cc(OC(F)F)c3)cc21 [Example 39]

>  <system_under_test>
RORγt (Homo sapiens, UniProt P51449)

>  <sign>
=

>  <measured_result>
1240

$$$$
>  <compound>
N#CC1(N2CCN3c4ccc(-c5cc(F)cc(OC(F)F)c5)cc4N(S(=O)(=O)c4cccc(C(F)(F)F)c4)C[C@@H]3C2)CCC1 [Example 77]

>  <system_under_test>
RORγt (Homo sapiens, UniProt P51449)

>  <sign>
=

>  <measured_result>
1470

$$$$
>  <compound>
CC1(C)C=C(c2ccc3c(c2)N(S(=O)(=O)c2cccc(C(F)(F)F)c2)C[C@@H]2CN(CC(=O)O)CCN32)CC(C)(C)O1 [Example 22]

>  <system_under_test>
RORγt (Homo sapiens, UniProt P51449)

>  <sign>
=

>  <measured_result>
245

$$$$
